# assayTarget: T1, integrin αIIbβ3, purified and immobilized on microtiter wells (UniProt P08514 32-1039; P05106 27-788)
# T1 construct: Purified integrin coated at 50 ng per well; also called α11bβ3
# testName: solid-phase competition: peptide against vitronectin (VN) on immobilized αIIbβ3; individual assay
outcomeMeasure: IC50 (µM)

P = YTAECKPQVTRGDVF (Linear synthetic peptide) [peptide 62880, YTAECKPQVTRGDVF (linear, VN-derived amino acid residues 35-49)]
Q = TDVNGDGRHDL (Linear synthetic peptide) [peptide 62502, TDVNGDGRHDL (linear, αIIb-derived amino acid residues 296-306)]
Between P and Q , whose recorded IC50 is greater? Let me know the label of the one you choose. Q
(Q: 5 µM, P: 0.98 µM)
